Where these numbers come from: ChEMBL document CHEMBL5303765

# Assay Target: L-type calcium channel, dihydropyridine site (Rattus norvegicus, UniProt P22002+P27732+Q02485)
# Method: Calcium Channel L-Type, Dihydropyridine Eurofins Panlabs panel
# Format: protein assay
# Test Settings: compound concentration 10 uM
Readout Type: inhibition at 10 µM
# output: number + unit

Could you tell me which inhibition at 10 µM is on file for CCC[C@H]1CNCc2c1[nH]c(=O)c(C#N)c2N1CCC2(CC1)CC2 ?
29%

* * *

# Assay Target: Voltage-gated sodium channel, site 2 (Rattus norvegicus, UniProt F1LQQ7+O08562+O88420+O88457+P04774+P04775+P08104+P15389+P15390+Q62968)
# Method: Sodium Channel, Site 2 Eurofins Panlabs panel
# Type: protein assay
# Test Settings: compound concentration 10 uM
Readout Type: inhibition at 10 µM (%)
Your answer should be a plain number; it is taken to be in %.

Could you tell me which inhibition at 10 µM is on file for CCC[C@H]1CNCc2c1[nH]c(=O)c(C#N)c2N1CCC2(CC1)CC2 ?
-4
